Parameter: inhibition of hemolysis IC50. Scope: all listed entries.
target: Human C3 (Complement tech cat #A113c) (human, UniProt P01024 23-1663); assay: cell-based or functional assay
Sequence (P01024 23-1663 limits assumed): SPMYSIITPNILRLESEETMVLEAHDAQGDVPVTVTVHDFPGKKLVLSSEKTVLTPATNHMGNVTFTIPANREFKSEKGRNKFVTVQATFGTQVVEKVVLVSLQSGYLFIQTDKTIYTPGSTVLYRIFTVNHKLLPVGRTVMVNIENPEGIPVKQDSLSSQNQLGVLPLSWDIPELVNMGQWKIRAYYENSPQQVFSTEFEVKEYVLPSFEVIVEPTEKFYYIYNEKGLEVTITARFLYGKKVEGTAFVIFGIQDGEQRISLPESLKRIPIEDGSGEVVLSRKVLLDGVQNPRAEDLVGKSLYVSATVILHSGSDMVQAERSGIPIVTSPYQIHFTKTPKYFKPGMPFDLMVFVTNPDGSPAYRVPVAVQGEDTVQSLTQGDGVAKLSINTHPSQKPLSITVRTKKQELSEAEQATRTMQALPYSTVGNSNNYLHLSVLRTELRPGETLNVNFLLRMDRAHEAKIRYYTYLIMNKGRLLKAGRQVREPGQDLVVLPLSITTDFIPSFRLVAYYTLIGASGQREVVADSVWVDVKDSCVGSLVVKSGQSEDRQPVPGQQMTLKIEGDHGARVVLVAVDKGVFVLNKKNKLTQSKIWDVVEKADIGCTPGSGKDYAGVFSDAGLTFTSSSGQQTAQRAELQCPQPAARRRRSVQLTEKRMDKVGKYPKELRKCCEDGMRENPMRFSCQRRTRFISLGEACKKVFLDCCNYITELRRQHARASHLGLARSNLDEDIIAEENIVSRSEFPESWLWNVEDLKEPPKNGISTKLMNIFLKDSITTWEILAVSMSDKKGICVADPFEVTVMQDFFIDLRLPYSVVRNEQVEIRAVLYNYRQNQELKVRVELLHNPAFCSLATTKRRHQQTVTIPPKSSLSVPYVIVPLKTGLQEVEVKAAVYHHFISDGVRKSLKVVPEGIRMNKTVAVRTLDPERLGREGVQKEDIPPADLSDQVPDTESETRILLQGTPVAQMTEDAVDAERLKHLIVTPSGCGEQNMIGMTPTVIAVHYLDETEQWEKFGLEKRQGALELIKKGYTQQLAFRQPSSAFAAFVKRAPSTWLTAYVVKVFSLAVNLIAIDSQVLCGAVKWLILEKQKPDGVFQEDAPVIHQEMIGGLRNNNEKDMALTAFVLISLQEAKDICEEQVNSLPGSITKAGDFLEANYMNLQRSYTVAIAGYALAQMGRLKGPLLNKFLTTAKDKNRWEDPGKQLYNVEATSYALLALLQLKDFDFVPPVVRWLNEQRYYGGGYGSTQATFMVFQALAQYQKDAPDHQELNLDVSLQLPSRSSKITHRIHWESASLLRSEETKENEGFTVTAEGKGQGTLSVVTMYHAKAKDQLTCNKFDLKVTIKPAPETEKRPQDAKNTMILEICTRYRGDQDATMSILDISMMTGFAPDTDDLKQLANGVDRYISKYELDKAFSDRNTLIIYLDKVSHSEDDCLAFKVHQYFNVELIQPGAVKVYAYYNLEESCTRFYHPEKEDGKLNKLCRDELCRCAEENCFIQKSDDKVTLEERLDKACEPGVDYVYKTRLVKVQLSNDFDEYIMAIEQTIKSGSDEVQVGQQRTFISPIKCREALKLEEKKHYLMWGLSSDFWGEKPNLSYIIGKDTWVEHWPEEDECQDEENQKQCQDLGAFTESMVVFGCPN
Positions of bridges follow the written chain, without caps; N, C: chain ends. Non-standard residues stand in square brackets, D forms with d. 2Nal = N[C@@H](Cc1ccc2ccccc2c1)C(=O)O

- Ac-ICI[2Nal]QDWGEHRCTGAES-NH2 (disulfide 2-12; SMILES CC[C@H](C)[C@H](NC(C)=O)C(=O)N[C@H]1CSSC[C@@H](C(=O)N[C@H](C(=O)NCC(=O)N[C@@H](C)C(=O)N[C@@H](CCC(=O)O)C(=O)N[C@@H](CO)C(N)=O)[C@@H](C)O)NC(=O)[C@H](CCCNC(=N)N)NC(=O)[C@H](Cc2c[nH]cn2)NC(=O)[C@H](CCC(=O)O)NC(=O)CNC(=O)[C@H](Cc2c[nH]c3ccccc23)NC(=O)[C@H](CC(=O)O)NC(=O)[C@H](CCC(N)=O)NC(=O)[C@H](Cc2ccc3ccccc3c2)NC(=O)[C@H]([C@@H](C)CC)NC1=O) [Compound 52]: < 100 nM

Please examine the following record next.
Record Ac-ESSAICIWQDWGAHRCT-NH2 (disulfide 6-16; SMILES CC[C@H](C)[C@H](NC(=O)[C@H](C)NC(=O)[C@H](CO)NC(=O)[C@H](CO)NC(=O)[C@H](CCC(=O)O)NC(C)=O)C(=O)N[C@H]1CSSC[C@@H](C(=O)N[C@H](C(N)=O)[C@@H](C)O)NC(=O)[C@H](CCCNC(=N)N)NC(=O)[C@H](Cc2c[nH]cn2)NC(=O)[C@H](C)NC(=O)CNC(=O)[C@H](Cc2c[nH]c3ccccc23)NC(=O)[C@H](CC(=O)O)NC(=O)[C@H](CCC(N)=O)NC(=O)[C@H](Cc2c[nH]c3ccccc23)NC(=O)[C@H]([C@@H](C)CC)NC1=O) [Compound 46] . Reported inhibition of hemolysis IC50: < 100 nM

Recorded values, source patent US11965039B2.
